# System: SDH-WT, Murine HRAS-transformed cells
# assay: Toxicity assay with or without rotenone
# Format: cell-based
# details: Mus musculus, with 25 nM rotenone, 72 hours, read-out: EC50 (nM) with Rotenone
valueKind: EC50 (nM)
Numbers only here, please. The scale is nM.

Inquiry: Record lookup: for SDH-WT, Murine HRAS-transformed cells, what EC50 belongs to CC1(C)Cc2nc3sc4c(NCCc5ccc6[nH]cnc6c5)ncnc4c3cc2CO1 ?
Reply text: 3

====

# Tested on: SDH-KO-HRAS cells (SDHB-deficient)
# assay: Cellular / differential toxicity assay (CellTiter-Glo, 3 days)
# Type: cell-based, murine
# details: Mus musculus, 72 h, toxicity, SDH-KO cells, 3 days, CellTiter-Glo; read-out: EC50 (uM) SDH-KO-HTAS-C17
valueKind: EC50

Consider the worked cases shown below.
compound	testedSystem	EC50
COc1ccc(CCNc2ncnc3c2sc2nc4c(cc23)CN(C)CC4)cc1F	SDH-KO-HRAS cells (SDHB-deficient)	3 to 10 µM
CCN1CCN(c2ncnc3c2sc2nc4c(cc23)COC(C)(C)C4)CC1	SDH-KO-HRAS cells (SDHB-deficient)	> 10 µM
Cc1nc(N2CCOCC2)c2sc3nc4c(cc3c2n1)COC(C)(C)C4	SDH-KO-HRAS cells (SDHB-deficient)	> 10 µM

Inquiry: Record lookup: for SDH-KO-HRAS cells (SDHB-deficient), what EC50 belongs to Cc1nc(NC2CCCCC2)c2sc3nc4c(cc3c2n1)COC(C)(C)C4 ?
Reply text: 3 to 10 µM

Inquiry: Record lookup: for SDH-KO-HRAS cells (SDHB-deficient), what EC50 belongs to COc1ccc(CCN(C)c2ncnc3c2sc2nc4c(cc23)COC(C)(C)C4)cc1F ?
Reply text: 3 to 10 µM

Inquiry: Record lookup: for SDH-KO-HRAS cells (SDHB-deficient), what EC50 belongs to Cc1nc(NCCC(C)C)c2sc3nc4c(cc3c2n1)COC(C)(C)C4 ?
Reply text: > 10 µM

Inquiry: Record lookup: for SDH-KO-HRAS cells (SDHB-deficient), what EC50 belongs to CCCN(CCC)c1nc(C)nc2c1sc1nc3c(cc12)COC(C)(C)C3 ?
Reply text: > 10 µM

Inquiry: Record lookup: for SDH-KO-HRAS cells (SDHB-deficient), what EC50 belongs to COc1ccc(C2CCN(c3ncnc4c3sc3nc5c(cc34)COC(C)(C)C5)C2)cc1F (centres unmarked) ?
Reply text: 3 to 10 µM

Inquiry: Record lookup: for SDH-KO-HRAS cells (SDHB-deficient), what EC50 belongs to Cc1nc(NC(C)Cc2ccccc2)c2sc3nc4c(cc3c2n1)COC(C)(C)C4 (centres unmarked) ?
Reply text: > 10 µM

Inquiry: Record lookup: for SDH-KO-HRAS cells (SDHB-deficient), what EC50 belongs to CC1(C)Cc2nc3sc4c(NCCc5ccc6[nH]cnc6c5)ncnc4c3c(C(=O)OCCCCCCCC(=O)O)c2CO1 ?
Reply text: 3 to 10 µM

Inquiry: Record lookup: for SDH-KO-HRAS cells (SDHB-deficient), what EC50 belongs to CC1(C)Cc2nc3sc4c(NCc5cccnc5)ncnc4c3cc2CO1 ?
Reply text: > 10 µM

Inquiry: Record lookup: for SDH-KO-HRAS cells (SDHB-deficient), what EC50 belongs to CC(O)CN(CC(C)O)c1ncnc2c1sc1nc3c(cc12)COC(C)(C)C3 (centres unmarked) ?
Reply text: > 10 µM

Inquiry: Record lookup: for SDH-KO-HRAS cells (SDHB-deficient), what EC50 belongs to COc1ccccc1CCNc1ncnc2c1sc1nc3c(cc12)COC(C)(C)C3 ?
Reply text: 3 to 10 µM

Inquiry: Record lookup: for SDH-KO-HRAS cells (SDHB-deficient), what EC50 belongs to CN(CCO)c1ncnc2c1sc1nc3c(cc12)COC(C)(C)C3 ?
Reply text: > 10 µM

Inquiry: Record lookup: for SDH-KO-HRAS cells (SDHB-deficient), what EC50 belongs to CC(Nc1ncnc2c1sc1nc3c(cc12)COC(C)(C)C3)c1ccccc1 (centres unmarked) ?
Reply text: > 10 µM

Inquiry: Record lookup: for SDH-KO-HRAS cells (SDHB-deficient), what EC50 belongs to CC1(C)Cc2nc3sc4c(N5CCN(C(c6ccccc6)c6ccccc6)CC5)ncnc4c3cc2CO1 ?
Reply text: > 10 µM

Inquiry: Record lookup: for SDH-KO-HRAS cells (SDHB-deficient), what EC50 belongs to CC1(C)Cc2nc3sc4c(NCCc5cncnc5)ncnc4c3cc2CO1 ?
Reply text: > 10 µM
